System: RPMI-8226 leukemia
PROTOCOL: NCI tumour cell line growth inhibition, 48 h
Kind request: treat 5 µM as inclusive, so TGI at 5 µM or higher is T, anything lower is F.

COMPOUND	ASSIGNED_LABEL
Cn1nc(-c2ccccc2)c2c(/C=C/c3ccc(F)cc3)onc2c1=O	T
O=C(N/C(=C\c1cccc([N+](=O)[O-])c1)c1nc2c3c(ccc2[nH]1)C(=O)c1ccccc1C3=O)c1ccccc1	T
CCOC(=O)c1ccc(Nc2nc3ccccc3n3cccc23)cc1	T
Cc1ccc(C(=O)C2C=C(c3ccc(C)cc3)SC3C=CCC32)cc1 (stereo unspecified)	T
CCCCN(C)CC(C(C)=O)C(c1ccccc1)c1c(O)c2ccccc2oc1=O (stereo unspecified)	T
C#Cc1cccc(Nc2nc(C)nc3cc(NC(=O)CCl)ccc23)c1	F
[N-]=[N+]=C1C(=O)C2CC3CC1CC2C3 (stereo unspecified)	T
CCCCCCCCCCNC(=S)OC	T
Cc1cccc2c(=O)c3c(sc12)c(NCCCN)nc1ccccc13	F
CC(=O)CCc1ccc(Oc2c3ccccc3nc3occc23)cc1	T

* * *

This listing pairs compounds with measured TGI.
System: UACC-62 melanoma
PROTOCOL: NCI tumour cell line growth inhibition, 48 h

COMPOUND	QUALIFYING_SIGN	TGI [µM]
O=C1NCN(c2ccccc2)C12CCN(CCCN1CCN(CCOC(c3ccccc3)c3ccccc3)CC1)CC2	=	7.69
Fc1ccccc1-c1cc(=S)c2cc3c(cc2[nH]1)OCO3	>	30
COC(Cc1cc(C(O)(c2ccc(C(C)(C)C)cc2)c2cc(CC(OC)(c3cc(C(OC)(c4ccc(C(C)(C)C)cc4)c4ccc(C(C)(C)C)cc4)c(C)cc3C)c3cc(C(OC)(c4ccc(C(C)(C)C)cc4)c4ccc(C(C)(C)C)cc4)c(C)cc3C)c(C)cc2C)c(C)cc1C)(c1cc(C(OC)(c2ccc(C(C)(C)C)cc2)c2ccc(C(C)(C)C)cc2)c(C)cc1C)c1cc(C(OC)(c2ccc(C(C)(C)C)cc2)c2ccc(C(C)(C)C)cc2)c(C)cc1C	>	75
C=C(C)[C@@]12C[C@H](OC(=O)[C@H](O)[C@@H](NC(=O)c3ccccc3)c3ccccc3)C(C)=C1[C@@H](OC(C)=O)C(=O)[C@@]1(C)C([C@@H]2OC(=O)c2cc(F)cc(F)c2)C2(OC(C)=O)CO[C@@H]2C[C@@H]1O (stereo partly specified)	=	3.26
CCCCCCCCCCCCCCCCCC1=NC(C)(C)CN1C(C)(C)CO	=	3.46
N#CC12CC(C=O)=C(N)C1(C#N)CC(C=O)=C2N (stereo unspecified)	>	100

* * *

Tested on: KM12 colon
PROTOCOL: NCI tumour cell line growth inhibition, 48 h
# TGI annotations

COMPOUND	TGI
C=C1C2CC(OC(C)=O)C3(C)C(c4ccoc4)OC(=O)[C@@H](O)[C@]13OC1C[C@H](OC(C)=O)C(C)(C)[C@H](C(O)C(=O)OC)[C@]12C (some centres undefined)	> 100 µM
CCOC(=O)NC(=O)c1cn(CCN(CCO)C(=O)NCCCCCCNC(=O)N(CCO)CCn2cc(C(=O)NC(=O)OCC)c(=O)[nH]c2=O)c(=O)[nH]c1=O	> 100 µM
COc1ccc(CC2Cc3ccccc3CC(=O)N2)cc1OC (centres undefined)	> 100 µM
N#CC1(C#N)C(=O)c2ccncc2C1=O	> 100 µM
O=C1/C(=C/c2ccc(Cl)cc2)N=C(c2ccccc2)N1c1cc(C(F)(F)F)ccc1Cl	84 µM
C=CCN=C1NC(=O)C(CC(=O)Nc2cccc(Cl)c2)S1 (centres undefined)	> 100 µM
CC1CN=C(N(C(=O)Nc2ccc(Cl)cc2)c2cccc(Cl)c2)S1 (centres undefined)	> 100 µM
Cn1cc(-c2ncnc3ccc(-c4cnc(Cl)c(NS(C)(=O)=O)c4)cc23)c2ccccc21	19.2 µM
Cc1cn(C(CO)OC(CO)CN(O)C2C3CC4CC(C3)CC2C4)c(=O)[nH]c1=O (centres undefined)	> 100 µM

* * *

Tested on: COLO 205 colon
PROTOCOL: NCI tumour cell line growth inhibition, 48 h
Listed here: items and their measured TGI.

COMPOUND	TGI
COc1ccc2[nH]c3c(c2c1)CCc1c(OC)cccc1-3	> 100 µM
COc1ccc(C/C=C(\C)CCO)cc1	> 100 µM
CCCC[C@H](CCc1ccccc1)N(C(=O)OC)N1CCC[C@H]1COC	30.8 µM
COc1cc(OCCCN2CCCC2)ccc1Nc1ncc(Cl)c(Nc2ccccc2P(C)(C)=O)n1	2.81 µM
COc1ccc(Cc2ccc3[nH]c(=O)cc(C)c3c2)cc1S(=O)(=O)O	> 100 µM
C=C1C2CC(OC(C)=O)C3(C)C(c4ccoc4)OC(=O)[C@@H](O)[C@]13OC1C[C@H](OC(C)=O)C(C)(C)[C@H](C(O)C(=O)OC)[C@]12C (stereo not given in full)	> 100 µM
COC(=O)C(/C(=N/N)C(=O)Nc1cc(Cl)ccc1Cl)c1nc2ccc([N+](=O)[O-])cc2[nH]c1=O (stereo not given)	> 100 µM
COC1CC(O[C@H]2CC[C@@]3(C)C(=CCC4(O)C3CCC35C(=O)OC6(C)O[C@@]43CCC65)C2)OC(C)C1O (stereo not given in full)	> 100 µM
CC(=O)/C(=C/N1CC(=O)NC1=S)C(=O)Nc1ccccc1C	> 100 µM
Cc1ccc(N2C=Nn3c(nc4sc5c(c4c3=O)CCCC5)C2)cc1	> 100 µM

* * *

System: M14 melanoma
PROTOCOL: NCI tumour cell line growth inhibition, 48 h
Label FALSE if TGI falls below 30 µM; label TRUE in every other case.

COMPOUND	ASSIGNED_LABEL
Fc1ccccc1-c1cc(=S)c2cc3c(cc2[nH]1)OCO3	TRUE
COc1c(O)cc2c(c1O)C(=O)C(Cc1ccc(O)cc1)CO2 (centres undefined)	TRUE
O=C(N/N=C/c1ccc([N+](=O)[O-])cc1)c1ccccc1Nc1ccnc(C(F)(F)F)c1	TRUE
COc1ccc(/C=C/c2cc(OC)c(OC)c(OC)c2)cc1OC	TRUE
N=C1c2ccccc2C(=O)c2c(NCCNCCO)ccc(O)c21	FALSE
Cc1ccc([N+](=O)[O-])cc1NC(=O)C(=O)Cc1nc2ccc(C(=O)c3ccccc3)cc2[nH]c1=O	TRUE
COc1nc2c(c(=O)n1C)CN(c1ccccc1)C(=O)CN2C	TRUE
O=C(Nc1ccc(Cl)cc1)c1cc(NCc2cc(O)ccc2O)ccc1O	FALSE
CC1(C)CC[C@]2(C(=O)NCCNCCN)CC[C@]3(C)C(=CC[C@@H]4[C@@]5(C)CCC(=O)C(C)(C)[C@@H]5CC[C@]43C)[C@@H]2C1	FALSE
C/C(COc1ccc2oc(-c3ccccc3)cc(=O)c2c1)=N\O	TRUE
COc1cc2c(c(OC)c1OC)-c1ccc(OC)c(=O)cc1C(NC(=O)CCCCCNc1ccc(N=[N+]=[N-])cc1[N+](=O)[O-])CC2 (centres undefined)	FALSE
CCCCN(C)CC(C(C)=O)C(c1ccccc1)c1c(O)c2ccccc2oc1=O (centres undefined)	TRUE
COC(=O)CC(C(C(=O)OCc1ccccc1)C(C)O)N1C(=O)OCC1c1ccccc1 (centres undefined)	TRUE
Cn1c(=O)nc2n(-c3ccc(F)c(F)c3)c3ccccc3nc-2c1=O	TRUE
CCOC(=O)c1ccc(NCc2ccc3nc(OC)c(OC)nc3c2)cc1	TRUE
CCCCCCCCCCCCCCCCCC1=NC(C)(C)CN1C(C)(C)CO	FALSE
CC(C)(C)c1cc[n+](C[n+]2ccc(C(C)(C)C)cc2)cc1	TRUE

* * *

Tested on: OVCAR-3 ovarian
PROTOCOL: NCI tumour cell line growth inhibition, 48 h

COMPOUND	GI50
O=C1/C(=C/c2ccc(Cl)cc2)N=C(c2ccccc2)N1c1cc(C(F)(F)F)ccc1Cl	17.4 µM
COc1cccc(C2SC(C)C(=O)N2NC(=O)C(O)c2ccccc2)c1 (stereo not given)	> 100 µM
COC1=CC(c2ccc[nH]2)=N/C1=C\c1[nH]c(C)c(CC(=O)NCc2ccccc2)c1C	1.46 µM
C=C(C)[C@@H]1C/C=C(/COC(C)=O)CC[C@H]2O[C@@]2(C)CC/C=C(\C)CC1	> 100 µM
FC(F)(F)c1cccc(Oc2ccc(Nc3ncnc4ccc(OCCCN5CCOCC5)cc34)cc2Cl)c1	1.46 µM

* * *

Tested on: SNB-75 CNS
PROTOCOL: NCI tumour cell line growth inhibition, 48 h; in the data active means GI50 below about 0.43 µM; inactive means the rest
Outcomes: active, inactive

COMPOUND	STUDY_SYSTEM	ASSIGNED_LABEL
C[N+]1(CCNP(=S)(NCC[N+]2(C)Cc3c(ccc4c3OCO4)C3C2c2cc4c(cc2C[C@@H]3O)OCO4)NCC[N+]2(C)Cc3c(ccc4c3OCO4)C3C2c2cc4c(cc2C[C@@H]3O)OCO4)Cc2c(ccc3c2OCO3)C2C1c1cc3c(cc1C[C@H]2O)OCO3 (stereo not given in full)	SNB-75 CNS	inactive
C[C@]1(c2nc3c(C(N)=O)cccc3[nH]2)CCCN1	SNB-75 CNS	inactive
COc1nc2c(c(=O)n1C)CN(c1ccccc1)C(=O)CN2C	SNB-75 CNS	inactive
CC(=O)CCc1ccc(Oc2c3ccccc3nc3occc23)cc1	SNB-75 CNS	inactive
Cc1cccc2c(=O)c3c(sc12)c(NCCCN)nc1ccccc13	SNB-75 CNS	inactive
CC[C@H](C)[C@H](NC(=O)c1ncccn1)C(=O)N(C)[C@H](C[C@@H](OC(C)=O)c1nc(C(=O)N[C@@H](Cc2ccccc2)C[C@H](C)C(=O)OC)cs1)C(C)C	SNB-75 CNS	inactive
N#Cc1ccc2[nH]cc(Cc3c[nH]c4ccc(C#N)cc34)c2c1	SNB-75 CNS	inactive
NC(CCl)=NCC12CC3CC(CC(C3)C1)C2	SNB-75 CNS	inactive
O=C1NN(C(=O)c2ccccc2)C(c2ccc(Cl)c(Cl)c2)=C/C1=C\c1ccccc1[N+](=O)[O-]	SNB-75 CNS	inactive
O=c1oc2ccc(F)cc2c(=O)n1-c1ccc(I)cc1F	SNB-75 CNS	active
